- target: C-Raf FL (full length CRAF with Y340E and Y341E activating mutations, co-expressed with h14-3-3 zeta) (Homo sapiens (Human), UniProt P04049, Y340E/Y341E)
- Sequence (P04049 whole entry Y340E/Y341E): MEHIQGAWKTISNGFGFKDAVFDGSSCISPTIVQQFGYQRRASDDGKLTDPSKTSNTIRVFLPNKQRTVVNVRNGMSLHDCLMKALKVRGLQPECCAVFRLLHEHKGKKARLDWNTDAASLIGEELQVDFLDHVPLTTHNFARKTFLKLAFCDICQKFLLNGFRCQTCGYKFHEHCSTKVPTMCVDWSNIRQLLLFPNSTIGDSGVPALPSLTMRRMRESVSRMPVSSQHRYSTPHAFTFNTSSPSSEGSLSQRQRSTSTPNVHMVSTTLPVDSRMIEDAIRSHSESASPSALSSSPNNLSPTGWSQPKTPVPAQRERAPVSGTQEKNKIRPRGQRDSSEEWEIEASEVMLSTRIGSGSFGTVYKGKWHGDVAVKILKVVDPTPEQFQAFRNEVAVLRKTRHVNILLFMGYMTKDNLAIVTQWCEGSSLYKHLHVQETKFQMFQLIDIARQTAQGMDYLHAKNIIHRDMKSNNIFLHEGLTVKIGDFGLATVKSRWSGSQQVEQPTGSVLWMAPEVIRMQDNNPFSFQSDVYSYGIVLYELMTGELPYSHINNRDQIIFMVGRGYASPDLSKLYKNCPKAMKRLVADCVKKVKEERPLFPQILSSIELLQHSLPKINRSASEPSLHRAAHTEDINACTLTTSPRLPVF
- Sequence (P63104 whole entry partner): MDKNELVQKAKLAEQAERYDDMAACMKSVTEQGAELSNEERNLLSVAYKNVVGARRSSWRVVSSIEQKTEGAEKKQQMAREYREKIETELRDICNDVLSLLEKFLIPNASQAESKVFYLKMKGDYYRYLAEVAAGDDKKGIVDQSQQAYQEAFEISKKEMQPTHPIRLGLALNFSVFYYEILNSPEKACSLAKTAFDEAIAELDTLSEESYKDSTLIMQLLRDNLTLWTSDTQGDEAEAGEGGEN
- method: In vitro Raf activity determination, AlphaScreen p-MEK readout, c-Raf (C-Raf FL)
- measurementParameters: c-Raf approximately 4 nM, ATP 1 μM, pre-incubation 60 minutes, reaction 1 hour
Threshold check on IC50: strictly below 0.03 nM is rule met; on or above 0.03 nM is rule not met.

-- ask # TODO verify IC50 < 0.03 nM strictly for this compound: Cc1ccc(NC(=O)c2ccnc(C(F)(F)F)c2F)cc1-c1cnc2c(c1)C1C3COCC3C1C(=O)N2CCO (stereo not shown) [Example 280]
-- reply rule not met

-- ask # TODO verify IC50 < 0.03 nM strictly for this compound: Cc1ccc(NC(=O)c2ccnc(C(C)(F)F)c2)cc1-c1ccc2c(c1)N1CCOC[C@H]1[C@](CO)(CF)C2 [Example 410]
-- reply rule not met

-- ask # TODO verify IC50 < 0.03 nM strictly for this compound: CCN1C[C@@H]2CCOCCN2c2cc(-c3cc(NC(=O)c4ccnc(C(F)(F)F)c4)ccc3C)cnc2C1=O [Example 504]
-- reply rule not met

-- ask # TODO verify IC50 < 0.03 nM strictly for this compound: Cc1ccc(NC(=O)c2cc(C(C)(C)N)cc(C(F)(F)F)c2)cc1-c1ccc2c(c1)N1CCOC[C@H]1[C@](F)(CO)C2 [Example 392]
-- reply rule not met

-- ask # TODO verify IC50 < 0.03 nM strictly for this compound: Cc1ccc(NC(=O)c2ccnc(C(C)(F)F)c2)cc1-c1ccc2c(c1)N1CCOC[C@H]1[C@@](C)(N)C2 (racemic) [Example 93]
-- reply rule met

-- ask # TODO verify IC50 < 0.03 nM strictly for this compound: Cc1ccc(NC(=O)c2ccnc(C(C)(C)F)c2)cc1-c1cc(F)c2c(c1)N1CCOC[C@H]1[C@@](F)(CO)C2 [Example 432]
-- reply rule not met

-- ask # TODO verify IC50 < 0.03 nM strictly for this compound: Cc1ccc(NC(=O)c2ccnc(C(F)(F)F)c2)cc1-c1cnc2c(c1)N1CCOC[C@H]1C[C@H]2OCCO [Example 508]
-- reply rule not met

-- ask # TODO verify IC50 < 0.03 nM strictly for this compound: Cc1ccc(NC(=O)c2ccnc(C(C)(F)F)c2)cc1-c1cnc2c(c1)N1CCOC[C@@H]1C[C@@H]2O [Example 109]
-- reply rule met

-- ask # TODO verify IC50 < 0.03 nM strictly for this compound: CCN1C(=O)C[C@@H]2COCCN2c2cc(-c3cc(NC(=O)c4ccnc(C(C)(F)F)c4)ccc3C)cnc21 [Example 126]
-- reply rule met

---

Would you mind telling me the reported IC50 of each entry?
- target: C-Raf FL (full length CRAF with Y340E and Y341E activating mutations, co-expressed with h14-3-3 zeta) (Homo sapiens (Human), UniProt P04049, Y340E/Y341E)
- method: In vitro Raf activity determination, AlphaScreen p-MEK readout, c-Raf (C-Raf FL)
- measurementParameters: c-Raf approximately 4 nM, ATP 1 μM, pre-incubation 60 minutes, reaction 1 hour
Field: numeric (pM). Do not append units.

// Cc1ncc(NC(=O)c2cccc(C(F)(F)F)c2)cc1-c1cnc2c(c1)N1CCOC[C@@H]1[C@@H](C(C)(C)O)C2 [Example 455] : IC50 value = 1300

// Cc1ccc(NC(=O)c2ccnc(C(C)(C)F)c2)cc1-c1cc(F)c2c(c1)N1CCOC[C@H]1[C@](F)(CO)C2 [Example 422] : IC50 value = 1000

// Cc1ccc(NC(=O)c2ccnc(C(C)(F)F)c2)cc1-c1ccc2c(c1)N1CCOC[C@@H]1[C@@](F)(CO)C2 [Example 81] : IC50 value = 81

// CCN1C(=O)[C@@H]2COCC[C@@]2(C)c2cc(-c3cc(NC(=O)c4ccnc(C(C)(F)F)c4)ccc3C)cnc21 (stereo in doubt) [Example 343] : IC50 value = 200

// Cc1ccc(NC(=O)c2ccnc(C(C)(F)F)c2)cc1-c1cnc2c(c1)N1CCOC[C@@H]1[C@@H](C(C)(C)O)C2 [Example 459] : IC50 value = 400

// Cc1ccc(NC(=O)c2ccnc(C(F)(F)F)c2)cc1-c1ccc2c(c1)N1CCOC[C@H]1[C@](CO)(CF)C2 [Example 408] : IC50 value = 700

// Cc1ccc(NC(=O)c2ccnc(C(C)(F)F)c2)cc1-c1cc2c(nn1)OC(C)(C)[C@H]1COCCN21 [Example 138] : IC50 value = 590

// CCN1C(=O)[C@H]2[C@@H]3COC[C@@H]3[C@H]2c2cc(-c3cc(NC(=O)c4ccnc(C(C)(F)F)c4)ccc3C)cnc21 [Example 271] : IC50 value = 200

// Cc1ccc(NC(=O)c2cncc(C(F)(F)F)c2)cc1-c1cnc2c(c1)N1CCOC[C@H]1CC(=O)N2CCO [Example 329] : IC50 value = 200

// Cc1ncc(NC(=O)c2cccc(C(F)(F)F)c2)cc1-c1cnc2c(c1)[C@@H]1CCOC[C@H]1C(=O)N2CCO [Example 259] : IC50 value = 600

// Cc1ncc(NC(=O)c2ccnc(C(C)(F)F)c2)cc1-c1ccc2c(c1)N1CCOCC[C@@H]1C[C@@H]2O [Example 97] : IC50 value = 14

// Cc1ccc(NC(=O)c2cncc(C(F)(F)F)c2)cc1-c1cc(F)c2c(c1)N1CCOC[C@@H]1[C@](F)(CO)C2 [Example 440] : IC50 value = 300

// CNC(=O)C1Cc2ncc(-c3cc(NC(=O)c4ccnc(C(C)(F)F)c4)ccc3C)cc2N2CCOCC12 (racemic) [Example 173] : IC50 value = 12

// Cc1ccc(NC(=O)c2ccnc(C(C)(F)F)c2)cc1-c1cnc2c(c1)N1CCOC[C@@H]1C(F)(F)[C@@H]2O [Example 162] : IC50 value = 93

// Cc1ccc(NC(=O)c2ccnc(C(C)(F)F)c2)cc1-c1cc2n(c(=O)c1)CC[C@H]1COCCN21 [Example 411] : IC50 value = 200

// Cc1ccc(NC(=O)c2ccnc(C(F)(F)F)c2)cc1-c1ccc2c(c1)N1CCOC[C@H]1[C@@](F)(CO)C2 [Example 396] : IC50 value = 200

// Cc1ccc(NC(=O)c2ccnc(C(C)(F)F)c2)cc1-c1cnc2c(c1)N1CCOC[C@H]1C[C@]2(C)O (racemic) [Example 42] : IC50 value = 15

// Cc1ccc(NC(=O)c2ccnc(C(C)(C)F)c2)cc1-c1cc2c(cc1F)C[C@@](F)(CO)[C@@H]1COCCN21 [Example 483] : IC50 value = 1000

// Cc1ccc(NC(=O)c2ccnc(C(F)(F)F)c2)cc1-c1ccc2c(c1)N1CCOCC1c1cn(C)nc1-2 (racemic) [Example 45] : IC50 value = 170
